tested on: Escherichia coli ATCC 25922; assay: MIC, broth microdilution (CLSI), reference strain; conditions: CAMHB
Square brackets hold non-standard residues; d marks the D form. Peptide text beside a SMILES is read from it. * marks the point of attachment. Phe(4-CF3) = N[C@@H](Cc1ccc(C(F)(F)F)cc1)C(=O)O; Dab(3S-OH) = NC[C@H](O)[C@H](N)C(=O)O; Phe(2-F) = N[C@@H](Cc1ccccc1F)C(=O)O; ΔZArg = N=C(N)NCC/C=C(\N)C(=O)O; dOrn = NCCC[C@@H](N)C(=O)O; Orn = NCCC[C@H](N)C(=O)O; Dab = NCC[C@H](N)C(=O)O; NH(CH2)4NH2 = NCCCCN*
Observation Type: Ec: MIC Escherichia coli ATCC 25922

The recorded Ec: MIC Escherichia coli ATCC 25922 for entry N=C(N)NCC/C=C(\NC(=O)[C@H](CCCCN)NC(=O)[C@H](Cc1cnc[nH]1)NC(=O)[C@@H]1CCCN1C(=O)[C@@H](CCCN)NC(=O)CNC(=O)[C@H](CO)NC(=O)[C@H](CCN)NC(=O)[C@@H](N)CCCCN)C(=O)N[C@@H](CCCCN)C(=O)NCCCCN [16.1] (H-K[Dab]SG[dOrn]PHK[ΔZArg]K-{NH(CH2)4NH2}) equals − (>32 μg/mL)

The recorded Ec: MIC Escherichia coli ATCC 25922 for entry C[C@H](NC(=O)[C@H](CCN)NC(=O)[C@@H](N)CCN)C(=O)NCC(=O)N[C@H](CCCN)C(=O)N1CCC[C@H]1C(=O)N[C@@H](Cc1cnc[nH]1)C(=O)N[C@@H](CCCCN)C(=O)N/C(=C\CCNC(=N)N)C(=O)N[C@@H](CCCCN)C(=O)NCCCCN [14.25] (H-[Dab][Dab]AG[dOrn]PHK[ΔZArg]K-{NH(CH2)4NH2}) equals − (>32 μg/mL)

The recorded Ec: MIC Escherichia coli ATCC 25922 for entry CC[C@H](C)[C@H](NC(=O)/C(=C/CCNC(=N)N)NC(=O)[C@H](CCCCN)NC(=O)[C@H](Cc1cnc[nH]1)NC(=O)[C@@H]1CCCN1C(=O)[C@@H](CCCN)NC(=O)CNC(=O)[C@H](C)NC(=O)[C@@H](NC(=O)[C@@H](N)CCCCN)[C@@H](O)CN)C(=O)O [24.123] (H-K[Dab(3S-OH)]AG[dOrn]PHK[ΔZArg]I-OH) equals − (>32 μg/mL)

The recorded Ec: MIC Escherichia coli ATCC 25922 for entry N=C(N)NCC/C=C(\NC(=O)[C@H](CCCCN)NC(=O)[C@H](Cc1cnc[nH]1)NC(=O)[C@@H]1CCCN1C(=O)[C@@H](CCCN)NC(=O)CNC(=O)[C@H](CCN)NC(=O)[C@@H](NC(=O)[C@@H](N)CCCCN)[C@@H](O)CN)C(=O)O [21.2] (H-K[Dab(3S-OH)][Dab]G[dOrn]PHK[ΔZArg]-OH) equals ++ (≤8 μg/mL)

The recorded Ec: MIC Escherichia coli ATCC 25922 for entry C[C@H](NC(=O)[C@@H](NC(=O)[C@@H](N)CCCCN)[C@@H](O)CN)C(=O)NCC(=O)N[C@H](CCCN)C(=O)N1CCC[C@H]1C(=O)N[C@@H](Cc1ccc(C(F)(F)F)cc1)C(=O)N[C@@H](CCCCN)C(=O)N/C(=C\CCNC(=N)N)C(=O)O [24.94] (H-K[Dab(3S-OH)]AG[dOrn]P[Phe(4-CF3)]K[ΔZArg]-OH) equals ++ (≤8 μg/mL)

Kindly review the next compound as well.
The recorded Ec: MIC Escherichia coli ATCC 25922 for entry N=C(N)NCC/C=C(\NC(=O)[C@H](CCCCN)NC(=O)[C@H](Cc1ccccc1F)NC(=O)[C@@H]1CCCN1C(=O)[C@@H](CCCN)NC(=O)CNC(=O)[C@H](CCCN)NC(=O)[C@@H](NC(=O)[C@@H](N)CCCCN)[C@@H](O)CN)C(=O)O [211.9] (H-K[Dab(3S-OH)][Orn]G[dOrn]P[Phe(2-F)]K[ΔZArg]-OH) equals ++ (≤8 μg/mL)
